Cited source for all entries: patent US20230348362A1

- Protocol Text: Lipid nanoparticle size and polydispersity by dynamic light scattering
- Format: physicochemical
- Test Parameters: LNP of lipid/DSPC/cholesterol/PEG-lipid 50:10:38.5:1.5 encapsulating hEPO mRNA
Label scheme for size (nm): lower than 70 nm is n, 70 nm and above is y.

## Input Check this compound for size (nm) at or above 70 nm: CCCCCCCCCCCOC(=O)CCCCCN(CCN(CCO)CCCCC(COC(=O)CCCCCCC)COC(=O)CCCCCCC)C1CCC1 [Compound 182]
## Output y

## Input Could you tell me if the measured size (nm) of CCCCCCCCC(CCCCCCCC)COC(=O)CCOCCN(CC=C(C)C)CCN(CCO)CCOCCC(=O)OCC(CCCCCCCC)CCCCCCCC [Compound 120] reaches 70 nm or more?
## Output y

## Input Tell me whether size (nm) is at least 70 nm here: CCCCCCCCCCCOC(=O)CCCCCN1CCC(N(CCO)CCCCCC(=O)OCC(CCCCCCCC)CCCCCCCC)CC1 [Compound 173]
## Output n

## Input Does the compound CCCCC/C=C\CCCOC(=O)CCCCCN(CCN(CCO)CCCCCC(=O)OCC(CCCCCCCC)CCCCCCCC)C1CCCCC1 [Compound 19] have recorded size (nm) that is 70 nm or more?
## Output y

## Input hey, is size (nm) for this one >= 70 nm? CCCCCCCCCCCOC(=O)CCCCCN(CCN(CCO)CCCCCC(OCCCCCCCC)OCCCCCCCC)C1CCC1 [Compound 200]
## Output y

## Input Assess whether reported size (nm) for CCCCCCCCCCCOC(=O)CCCCCN(CCN(CCO)CCCCCC(=O)OCC(CCCCCCCC)CCCCCCCC)C1CCCC1 [Compound 130] sits at 70 nm or higher.
## Output y

## Input Has CCCCCCCCCCCOC(=O)CCCCCN(CCN(CCO)CCCCCC(=O)OCC(CCCCCCCCCC)CCCCCCCCCC)C1CCCCC1 [Compound 47] a recorded size (nm) greater than or equal to 70 nm?
## Output n

## Input # check: size (nm) of CCCCCCCCC(CCCCCC)CNC(=O)CCCCN(CCO)CCN(CCCCC(COC(=O)CCCCCCC)COC(=O)CCCCCCC)C1CCCCCC1 (centres unmarked) [Compound 229] is greater than or equal to 70 nm
## Output y

## Input // inclusive: size (nm) at least 70 nm? input: CCCCCCCCC(CCCCCC)COC(=O)CCCCCN(C)CCN(CCO)CCCCC(COC(=O)CCCCCCC)COC(=O)CCCCCCC (centres unmarked) [Compound 156]
## Output y

## Input Record CCCCCCCCC(CCCCCC)CNC(=O)CCN(CCO)CCN(CCCCC(COC(=O)CCCCCCC)COC(=O)CCCCCCC)C1CCCCCC1 (centres unmarked) [Compound 212] ; criterion: size (nm) no lower than 70 nm. Met?
## Output y

## Input Say whether CCCCCCCC(=O)OCC(CCCCN(CCO)CCCCN(CCCCC(COC(=O)CCCCCCC)COC(=O)CCCCCCC)C1CCC1)COC(=O)CCCCCCC [Compound 219] shows size (nm) of 70 nm or more.
## Output y

## Input Evaluate CCCCCCCCCCCOC(=O)CCCCCN(CCN(CCO)CCCCCC(=O)OCC(CCCCCCCC)CCCCCCCC)C1CC1 [Compound 129] : size (nm) at minimum 70 nm?
## Output n

## Input Does CCCCCCCCCCCCCCOCC(CN(CCN(CCO)CCCCCC(=O)OCC(CCCCCCCC)CCCCCCCC)C1CCC1)OCCCCCCCC (centres unmarked) [Compound 20] have a reported size (nm) of at least 70 nm?
## Output y

## Input Please tell me: is the compound CCCCCCCCC(CCCCCC)CNC(=O)CCN(CCO)CCN(CCCCC(COC(=O)CCCCCCC)COC(=O)CCCCCCC)C1CCCCCCC1 (centres unmarked) [Compound 213] at or over 70 nm in terms of size (nm)?
## Output y

## Input Answer whether size (nm) of CCCCCCCCC(CCCCCCCC)COC(=O)CCCCCN(CCO)CCN(CCCCCC(=O)OCC(CCCCCCCC)CCCCCCCC)C1CCC(C(F)(F)F)CC1 (centres unmarked) [Compound 29] is greater than or equal to 70 nm.
## Output n

## Input # check: size (nm) of CCCCCCCCC(CCCCCCCC)CNC(=O)CCCCCN(CCNc1c(NC)c(=O)c1=O)CCN(C)CCCCCC(=O)OCC(CCCCCCCC)CCCCCCCC [Compound 96] is greater than or equal to 70 nm
## Output n

## Input Textbook exercise: given the entry CCCCCCCCOC(CCCCCN(CCO)CCN(CCCCCC(=O)NCC(CCCCCC)CCCCCCCC)C1CCCCCC1)OCCCCCCCC (centres unmarked) [Compound 202] , state whether its size (nm) is greater than or equal to 70 nm.
## Output y

## Input Decide: is the reported value of size (nm) for CCCCCCCCC(CCCCCCCC)CC(=O)NCCCCCN(CCN(CCO)CCCCCOC(=O)CC(CCCCCCCC)CCCCCCCC)C1CCCC1 [Compound 72] equal to or greater than 70 nm?
## Output y

## Input Say whether CCCCCCCCC(CCCCCC)COC(=O)CCCCCN(CCO)CCN(CCCCCC(=O)OCC(CCCCCC)CCCCCCCC)C1CCC1 (centres unmarked) [Compound 7] shows size (nm) of 70 nm or more.
## Output y

## Input State whether the measured size (nm) reaches 70 nm, counting equality as reaching it, for CCCCCCCCC(CCCCCCCC)CNC(=O)CCCCCN(CC=C(C)C)CCN(CCO)CCCCCC(=O)NCC(CCCCCCCC)CCCCCCCC [Compound 122]
## Output n

## Input Decide: size (nm) of CCCCCCCCC(CCCCCC)COC(=O)CCCCCN(CC=C(C)C)CCN(CCO)CCCCC1COC(C(CCCCCC)CCCCCCCC)OC1 (centres unmarked) [Compound 151] >= 70 nm?
## Output n

## Input Determine whether this compound has size (nm) no lower than 70 nm: CCCCCCCCCCCC(=O)OCCCCCN(CCN(CCO)CCOCCOC(=O)CC(CCCCCCCC)CCCCCCCC)C1CCC1 [Compound 97]
## Output y

## Input In plain terms: is recorded size (nm) at least 70 nm for CCCCCCCC(=O)OCC(CCCCN(CCO)CCCCN(CCCCC(COC(=O)CCCCCCC)COC(=O)CCCCCCC)C1CCCCC1)COC(=O)CCCCCCC [Compound 185] ?
## Output y

## Input Textbook exercise: given the entry CCCCCCCCCCCC(=O)OCC(CCCCN(CCO)CCN(CCCCC(COC(=O)CCCCCCCCCCC)COC(=O)CCCCCCCCCCC)C1CCC1)COC(=O)CCCCCCCCCCC [Compound 169] , state whether its size (nm) is greater than or equal to 70 nm.
## Output y
